# Test system: Pseudomonas aeruginosa
# experiment.summary: Antibacterial activity against Pseudomonas aeruginosa ATCC 27853 assessed as inhibition of bacterial growth measured after 24 hrs incubation
# Format: functional
Each entry below lists one item and its recorded MIC value.
Dear colleague, please return just the value in µg/mL, with no unit written.

CCn1cc(C(=O)O)c(=O)c2cc(F)c(N3CCN(C(=O)/C(C#N)=C/c4cn(CC=C(C)C)c5ccccc45)CC3)cc21    1
CCn1cc(C(=O)O)c(=O)c2cc(F)c(N3CCN(C(=O)/C(C#N)=C/c4cn(Cc5ccc(Cl)c(Cl)c5)c5ccccc45)CC3)cc21    1
CCn1cc(C(=O)O)c(=O)c2cc(F)c(N3CCN(C(=O)/C(C#N)=C/c4cn(CCO)c5ccccc45)CC3)cc21    0.5

Please look at the following compound next.
I have this compound here, CCn1cc(C(=O)O)c(=O)c2cc(F)c(N3CCN(C(=O)/C(C#N)=C/c4c[nH]c5ccccc45)CC3)cc21 , and I need its recorded MIC. 0.5

Just for reference, ChEMBL document CHEMBL5512655 is where these values come from.
